study target: UniProt P08246
Sequence (P08246 30-267): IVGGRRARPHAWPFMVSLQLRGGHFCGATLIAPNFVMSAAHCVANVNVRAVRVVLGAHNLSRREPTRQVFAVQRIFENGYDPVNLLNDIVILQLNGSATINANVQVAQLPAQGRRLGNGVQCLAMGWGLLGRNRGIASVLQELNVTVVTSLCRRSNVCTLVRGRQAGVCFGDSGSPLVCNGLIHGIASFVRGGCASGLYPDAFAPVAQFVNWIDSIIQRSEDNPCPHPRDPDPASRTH
procedure summary: Inhibition of human polymorphonuclear leukocyte elastase via hydrolysis of Boc-AAPAN or Boc-AAPVN
Assay type: biochemical
test settings: pH 7.5, Table I; second order rate constant for inactivation of the enzyme; read-out: Kobs /[I]
Threshold rule: kinact/KI greater than or equal to 700000 M⁻¹ s⁻¹ is 1 (yes); below that, 0 (no).

compound	study target	class
CCC[C@@H](NC(=O)N1C(=O)C(CC)(CC)[C@@H]1Oc1ccc(CN(C)CC2CCCO2)cc1)c1ccc(C)cc1 (stereo partly drawn) [R4=Me; R5=CH2 CH(CH2 CH2 CH2 O); R6=H]	UniProt P08246	1 (yes)
CCC[C@@H](NC(=O)N1C(=O)C(CC)(CC)[C@@H]1Oc1ccc(CN(C)CCC(=O)N(C)C)cc1)c1ccc(C)cc1 [R4=Me; R5=CH2 CH2 CONMe2; R6=H]	UniProt P08246	1 (yes)
CCC[C@@H](NC(=O)N1C(=O)C(CC)(CC)[C@@H]1Oc1ccc(CNC(=O)CN(C)Cc2ccccc2)cc1)c1ccc(C)cc1 [R4=H; R5=COCH2 N(Me)Bn; R6=H]	UniProt P08246	1 (yes)
CCC[C@@H](NC(=O)N1C(=O)C(CC)(CC)[C@@H]1Oc1ccc(CN)cc1)c1ccc(C)cc1 [R4=H; R5=H; R6=H]	UniProt P08246	0 (no)
CCC[C@@H](NC(=O)N1C(=O)C(CC)(CC)[C@@H]1Oc1ccc(CN(C)Cc2ccccc2)cc1)c1ccc(C)cc1 [R4=Me; R5=Bn; R6=H]	UniProt P08246	0 (no)
CCC[C@@H](NC(=O)N1C(=O)C(CC)(CC)[C@@H]1Oc1ccc(CN(C)CCOC(=O)C(C)C)cc1)c1ccc(C)cc1 [R4=Me; R5=CH2 CH2 OCOCHMe2; R6=H]	UniProt P08246	0 (no)
CCC[C@@H](NC(=O)N1C(=O)C(CC)(CC)[C@@H]1Oc1ccc(CN2C(C)CCCC2C)cc1)c1ccc(C)cc1 (stereo partly drawn) [R4+R5=--CHMeCH2 CH2 CH2 CHMe--; R6=H]	UniProt P08246	1 (yes)
CCC[C@@H](NC(=O)N1C(=O)C(CC)(CC)[C@@H]1Oc1ccc(C(COC)N(C)CCC)cc1)c1ccc(C)cc1 (mixture of isomers) [R4=Me; R5=n-Pr; R6=CH2 OMe]	UniProt P08246	1 (yes)
CCC[C@@H](NC(=O)N1C(=O)C(CC)(CC)[C@@H]1Oc1ccc(CN(CC)CCOC)cc1)c1ccc(C)cc1 [R4=Et; R5=CH2 CH2 OMe; R6=H]	UniProt P08246	0 (no)
CCC[C@@H](NC(=O)N1C(=O)C(CC)(CC)[C@@H]1Oc1ccc(C(C)N(C)CCOCCOC)cc1)c1ccc(C)cc1 (stereo partly drawn) [R4=Me; R5=CH2 CH2 OCH2 CH2 OMe; R6=Me]	UniProt P08246	1 (yes)
CCC[C@@H](NC(=O)N1C(=O)C(CC)(CC)[C@@H]1Oc1ccc(CN(C)C(C)COC)cc1)c1ccc(C)cc1 (stereo partly drawn) [R4=Me; R5=CH(Me)CH2 OMe; R6=H]	UniProt P08246	1 (yes)
